- Test system: ESBL E. cloacae
- Format: cell-based, Enterobacter cloacae
Residues, ends and D or L forms follow the SMILES beside them.
property-label: log10 of MIC (log10 of the value in µM)

* N=C(N)NCCC[C@H](NC(=O)[C@H](CCCNC(=N)N)NC(=O)[C@H](CCCCN)NC(=O)[C@H](Cc1c[nH]c2ccccc12)NC(=O)[C@H](Cc1c[nH]c2ccccc12)NC(=O)[C@H](CCCCN)NC(=O)[C@H](CCCCN)NC(=O)[C@@H](N)Cc1c[nH]c2ccccc12)C(=O)N[C@@H](Cc1c[nH]c2ccccc12)C(N)=O [HHC48, WKKWWKRRW] (H-WKKWWKRRW-NH2; N-terminus assumed) | 1.36
* CC[C@H](C)[C@H](N)C(=O)N[C@@H](Cc1c[nH]c2ccccc12)C(=O)N[C@@H](Cc1c[nH]c2ccccc12)C(=O)N[C@@H](CCCCN)C(=O)N[C@@H](Cc1c[nH]c2ccccc12)C(=O)N[C@@H](CCCNC(=N)N)C(=O)N[C@@H](CCCNC(=N)N)C(=O)N[C@@H](Cc1c[nH]c2ccccc12)C(=O)N[C@H](C(N)=O)C(C)C [HHC77, IWWKWRRWV] (H-IWWKWRRWV-NH2; N-terminus assumed) | 0.78
* CC[C@H](C)[C@H](NC(=O)[C@@H](N)CCCCN)C(=O)N[C@@H](Cc1c[nH]c2ccccc12)C(=O)N[C@@H](Cc1c[nH]c2ccccc12)C(=O)N[C@@H](Cc1c[nH]c2ccccc12)C(=O)N[C@@H](Cc1c[nH]c2ccccc12)C(=O)N[C@@H](CCCNC(=N)N)C(=O)N[C@@H](CCCCN)C(=O)N[C@@H](CCCNC(=N)N)C(N)=O [HHC8, KIWWWWRKR] (H-KIWWWWRKR-NH2; N-terminus assumed) | 1.97
* CC[C@H](C)[C@H](NC(=O)[C@H](Cc1c[nH]c2ccccc12)NC(=O)[C@@H](NC(=O)[C@H](Cc1c[nH]c2ccccc12)NC(=O)[C@H](CCCNC(=N)N)NC(=O)[C@H](CCCCN)NC(=O)[C@@H](N)CCCCN)C(C)C)C(=O)N[C@@H](CCCNC(=N)N)C(=O)N[C@@H](Cc1ccc(O)cc1)C(N)=O [HHC69, KKRWVWIRY] (H-KKRWVWIRY-NH2; N-terminus assumed) | 1.40
* N=C(N)NCCC[C@H](NC(=O)[C@H](CCCNC(=N)N)NC(=O)[C@H](Cc1c[nH]c2ccccc12)NC(=O)[C@H](Cc1c[nH]c2ccccc12)NC(=O)[C@H](CCCCN)NC(=O)[C@H](Cc1c[nH]c2ccccc12)NC(=O)[C@H](Cc1c[nH]c2ccccc12)NC(=O)[C@H](CCCNC(=N)N)NC(=O)[C@@H](N)CCCCN)C(N)=O [HHC36, KRWWKWWRR] (H-KRWWKWWRR-NH2; N-terminus assumed) | 1.04
* CC[C@H](C)[C@H](NC(=O)[C@H](C)N)C(=O)N[C@@H](CCCNC(=N)N)C(=O)N[C@@H](CCCNC(=N)N)C(=O)N[C@@H](Cc1c[nH]c2ccccc12)C(=O)N[C@@H](CCCNC(=N)N)C(=O)N[C@H](C(=O)N[C@@H](CCCNC(=N)N)C(=O)N[C@@H](CCCCN)C(N)=O)[C@@H](C)CC [HHC142, AIRRWRIRK] (H-AIRRWRIRK-NH2; N-terminus assumed) | 2.03
* N=C(N)NCCC[C@H](NC(=O)[C@H](CCCNC(=N)N)NC(=O)[C@@H](N)Cc1ccccc1)C(=O)N[C@@H](Cc1c[nH]c2ccccc12)C(=O)N[C@@H](Cc1c[nH]c2ccccc12)C(=O)N[C@@H](CCCCN)C(=O)N[C@@H](Cc1c[nH]c2ccccc12)C(=O)N[C@@H](Cc1ccccc1)C(=O)N[C@@H](CCCCN)C(N)=O [HHC53, FRRWWKWFK] (H-FRRWWKWFK-NH2; N-terminus assumed) | 1.38
* CC[C@H](C)[C@H](NC(=O)[C@H](CCCCN)NC(=O)[C@H](CC(C)C)NC(=O)[C@@H](NC(=O)[C@@H](N)C(C)C)C(C)C)C(=O)N[C@H](C(=O)N[C@@H](CCCNC(=N)N)C(=O)N[C@@H](CCCNC(=N)N)C(=O)N[C@@H](Cc1ccccc1)C(N)=O)C(C)C [HHC148, VVLKIVRRF] (H-VVLKIVRRF-NH2; N-terminus assumed) | 2.38
* CC[C@H](C)[C@H](NC(=O)[C@H](CCCCN)NC(=O)[C@H](Cc1c[nH]c2ccccc12)NC(=O)[C@H](Cc1c[nH]c2ccccc12)NC(=O)[C@H](CCCNC(=N)N)NC(=O)[C@@H](N)Cc1c[nH]c2ccccc12)C(=O)N[C@@H](Cc1c[nH]c2ccccc12)C(=O)N[C@@H](CCCCN)C(=O)N[C@@H](CCCNC(=N)N)C(N)=O [HHC20, WRWWKIWKR] (H-WRWWKIWKR-NH2; N-terminus assumed) | 1.08
